test-method-notes: Compound stability test in human blood
Assay type: in vitro ADME
conditions-used: human blood, 37° C., 1 μM, 30 min
property: Remaining Percentages (%)

a: CCC(C)n1ncn(-c2ccc(N3CCN(c4ccc(OCC5COC(Cn6c[n+](C)cn6)(c6ccc(Cl)cc6Cl)O5)cc4)CC3)cc2)c1=O.[Cl-] (stereo not drawn) [Compound 1]
b: CCOC(=O)OC[n+]1cnn(CC2(c3ccc(Cl)cc3Cl)OCC(COc3ccc(N4CCN(c5ccc(-n6cnn(C(C)CC)c6=O)cc5)CC4)cc3)O2)c1.[Cl-] (stereo not drawn) [Compound 6]
Looking at a and b , which one comes out lower in Remaining Percentages (%) terms? Lab log: write the label of the selected item as the result. a

* * *

test-method-notes: Compound stability test in mouse blood
Type: in vitro ADME
conditions-used: male, CD-1; in vitro half-life in mouse blood, 37° C., 1 μM
property: half-life at 1 μM (min)

Worked cases, half-life at 1 μM given:
CCC(C)n1ncn(-c2ccc(N3CCN(c4ccc(OCC5COC(Cn6c[n+](COC(C)=O)cn6)(c6ccc(Cl)cc6Cl)O5)cc4)CC3)cc2)c1=O.[Cl-] (stereo not drawn) :: 59
CC(C)[N+](C)(CCOC(=O)C1c2ccccc2Oc2ccccc21)C(C)C [Propantheline, propantheline, reference compound] :: 38.8
CCC(C)n1ncn(-c2ccc(N3CCN(c4ccc(OCC5COC(Cn6c[n+](CC)cn6)(c6ccc(Cl)cc6Cl)O5)cc4)CC3)cc2)c1=O.[Cl-] (stereo not drawn) :: 11.8

a: CCCOC(=O)OC[n+]1cnn(CC2(c3ccc(Cl)cc3Cl)OCC(COc3ccc(N4CCN(c5ccc(-n6cnn(C(C)CC)c6=O)cc5)CC4)cc3)O2)c1.[Cl-] (stereo not drawn)
b: CCC(C)n1ncn(-c2ccc(N3CCN(c4ccc(OCC5COC(Cn6c[n+](C)cn6)(c6ccc(Cl)cc6Cl)O5)cc4)CC3)cc2)c1=O.[Cl-] (stereo not drawn)
c: CCC(C)n1ncn(-c2ccc(N3CCN(c4ccc(OCC5COC(Cn6c[n+](COC(=O)OC(C)C)cn6)(c6ccc(Cl)cc6Cl)O5)cc4)CC3)cc2)c1=O.[Cl-] (stereo not drawn)
Falling order of half-life at 1 μM, please. Answer by listing the labels in the requested order. c, a, b
(c: 21.9 min, a: 7.12 min, b: 1.77 min)

I: CCC(C)n1ncn(-c2ccc(N3CCN(c4ccc(OCC5COC(Cn6c[n+](COC(=O)C(C)C)cn6)(c6ccc(Cl)cc6Cl)O5)cc4)CC3)cc2)c1=O.[Cl-] (stereo not drawn)
II: CCOC(=O)OC[n+]1cnn(CC2(c3ccc(Cl)cc3Cl)OCC(COc3ccc(N4CCN(c5ccc(-n6cnn(C(C)CC)c6=O)cc5)CC4)cc3)O2)c1.[Cl-] (stereo not drawn)
// compare measured half-life at 1 μM between I and II ; output the lower one Give the label of your selection. I

* * *

test-method-notes: Compound stability test in human blood
Assay type: in vitro ADME
conditions-used: human blood, 37° C., 1 μM, 90 min
property: Remaining Percentages (%)

I: CCC(C)n1ncn(-c2ccc(N3CCN(c4ccc(OCC5COC(Cn6c[n+](C)cn6)(c6ccc(Cl)cc6Cl)O5)cc4)CC3)cc2)c1=O.[Cl-] (stereo not drawn) [Compound 1]
II: CCC(C)n1ncn(-c2ccc(N3CCN(c4ccc(OCC5COC(Cn6c[n+](CC)cn6)(c6ccc(Cl)cc6Cl)O5)cc4)CC3)cc2)c1=O.[Cl-] (stereo not drawn) [Compound 2]
III: CCC(C)n1ncn(-c2ccc(N3CCN(c4ccc(OCC5COC(Cn6c[n+](COC(=O)OC(C)C)cn6)(c6ccc(Cl)cc6Cl)O5)cc4)CC3)cc2)c1=O.[Cl-] (stereo not drawn) [Compound 8]
From the records above, write out the order of decreasing Remaining Percentages (%). Would you mind listing the labels in the order asked for? I, II, III

P: CCC(C)n1ncn(-c2ccc(N3CCN(c4ccc(OCC5COC(Cn6c[n+](COC(=O)C(C)C)cn6)(c6ccc(Cl)cc6Cl)O5)cc4)CC3)cc2)c1=O.[Cl-] (stereo not drawn) [Compound 4]
Q: CCOC(=O)OC[n+]1cnn(CC2(c3ccc(Cl)cc3Cl)OCC(COc3ccc(N4CCN(c5ccc(-n6cnn(C(C)CC)c6=O)cc5)CC4)cc3)O2)c1.[Cl-] (stereo not drawn) [Compound 6]
Given the listed items, does P or Q have the lesser reported Remaining Percentages (%)? Lab log: write the label of the selected item as the result. P
(P: 4.67%, Q: 41.1%)

* * *

test-method-notes: Compound stability test in human blood
Type: in vitro ADME
conditions-used: human blood, 37° C., 1 μM, 90 min
property: Remaining Percentages (%)

a: CCC(C)n1ncn(-c2ccc(N3CCN(c4ccc(OCC5COC(Cn6c[n+](COC(C)=O)cn6)(c6ccc(Cl)cc6Cl)O5)cc4)CC3)cc2)c1=O.[Cl-] (stereo not drawn)
b: CCC(C)n1ncn(-c2ccc(N3CCN(c4ccc(OCC5COC(Cn6c[n+](COC(=O)C(C)(C)C)cn6)(c6ccc(Cl)cc6Cl)O5)cc4)CC3)cc2)c1=O.[Cl-] (stereo not drawn)
c: CC(C)[N+](C)(CCOC(=O)C1c2ccccc2Oc2ccccc21)C(C)C [Propantheline, propantheline, reference compound]
Sort ascending by Remaining Percentages (%). Order the labels as requested and give them as your answer. b, c, a

* * *

test-method-notes: Compound stability test in human blood
Assay type: in vitro ADME
conditions-used: in vitro half-life in human blood, 37° C., 1 μM
property: half-life at 1 μM (min)

CCC(C)n1ncn(-c2ccc(N3CCN(c4ccc(OCC5COC(Cn6c[n+](C)cn6)(c6ccc(Cl)cc6Cl)O5)cc4)CC3)cc2)c1=O.[Cl-] (stereo not drawn) [Compound 1] :: 23.1
CCC(C)n1ncn(-c2ccc(N3CCN(c4ccc(OCC5COC(Cn6c[n+](COC(=O)C(C)(C)C)cn6)(c6ccc(Cl)cc6Cl)O5)cc4)CC3)cc2)c1=O.[Cl-] (stereo not drawn) [Compound 5] :: 18.1
CCCOC(=O)OC[n+]1cnn(CC2(c3ccc(Cl)cc3Cl)OCC(COc3ccc(N4CCN(c5ccc(-n6cnn(C(C)CC)c6=O)cc5)CC4)cc3)O2)c1.[Cl-] (stereo not drawn) [Compound 7] :: 5.07
CCC(C)n1ncn(-c2ccc(N3CCN(c4ccc(OCC5COC(Cn6c[n+](CC)cn6)(c6ccc(Cl)cc6Cl)O5)cc4)CC3)cc2)c1=O.[Cl-] (stereo not drawn) [Compound 2] :: 15.6

A: CCC(C)n1ncn(-c2ccc(N3CCN(c4ccc(OCC5COC(Cn6c[n+](COC(=O)C(C)C)cn6)(c6ccc(Cl)cc6Cl)O5)cc4)CC3)cc2)c1=O.[Cl-] (stereo not drawn) [Compound 4]
B: CCOC(=O)OC[n+]1cnn(CC2(c3ccc(Cl)cc3Cl)OCC(COc3ccc(N4CCN(c5ccc(-n6cnn(C(C)CC)c6=O)cc5)CC4)cc3)O2)c1.[Cl-] (stereo not drawn) [Compound 6]
C: CCC(C)n1ncn(-c2ccc(N3CCN(c4ccc(OCC5COC(Cn6c[n+](COC(C)=O)cn6)(c6ccc(Cl)cc6Cl)O5)cc4)CC3)cc2)c1=O.[Cl-] (stereo not drawn) [Compound 3]
D: CCC(C)n1ncn(-c2ccc(N3CCN(c4ccc(OCC5COC(Cn6c[n+](COC(=O)OC(C)C)cn6)(c6ccc(Cl)cc6Cl)O5)cc4)CC3)cc2)c1=O.[Cl-] (stereo not drawn) [Compound 8]
E: CC(C)[N+](C)(CCOC(=O)C1c2ccccc2Oc2ccccc21)C(C)C [Propantheline, propantheline, reference compound]
List the 5 entries from lowest half-life at 1 μM to highest half-life at 1 μM value. List the labels according to the requested ordering. D, A, E, B, C

* * *

test-method-notes: Compound stability test in human blood
Format: in vitro ADME
conditions-used: human blood, 37° C., 1 μM, 10 min
property: Remaining Percentages (%)

The examples below pair each entry with its known result.
CCC(C)n1ncn(-c2ccc(N3CCN(c4ccc(OCC5COC(Cn6c[n+](CC)cn6)(c6ccc(Cl)cc6Cl)O5)cc4)CC3)cc2)c1=O.[Cl-] (stereo not drawn) :: 60.3
CCOC(=O)OC[n+]1cnn(CC2(c3ccc(Cl)cc3Cl)OCC(COc3ccc(N4CCN(c5ccc(-n6cnn(C(C)CC)c6=O)cc5)CC4)cc3)O2)c1.[Cl-] (stereo not drawn) :: 94.2
CCC(C)n1ncn(-c2ccc(N3CCN(c4ccc(OCC5COC(Cn6c[n+](COC(C)=O)cn6)(c6ccc(Cl)cc6Cl)O5)cc4)CC3)cc2)c1=O.[Cl-] (stereo not drawn) :: 94.0
CCCOC(=O)OC[n+]1cnn(CC2(c3ccc(Cl)cc3Cl)OCC(COc3ccc(N4CCN(c5ccc(-n6cnn(C(C)CC)c6=O)cc5)CC4)cc3)O2)c1.[Cl-] (stereo not drawn) :: 25.3

I: CCC(C)n1ncn(-c2ccc(N3CCN(c4ccc(OCC5COC(Cn6c[n+](COC(=O)OC(C)C)cn6)(c6ccc(Cl)cc6Cl)O5)cc4)CC3)cc2)c1=O.[Cl-] (stereo not drawn)
II: CCC(C)n1ncn(-c2ccc(N3CCN(c4ccc(OCC5COC(Cn6c[n+](C)cn6)(c6ccc(Cl)cc6Cl)O5)cc4)CC3)cc2)c1=O.[Cl-] (stereo not drawn)
Which numeric Remaining Percentages (%) is bigger, that of I or that of II ? Give the label of your selection. II
(II: 68.5%, I: 31.6%)
